- ASSAYED_TARGET: human chemokine receptor 2 isoform B (Homo sapiens, UniProt P41597)
- Sequence (P41597 1-360 isoform P41597-2): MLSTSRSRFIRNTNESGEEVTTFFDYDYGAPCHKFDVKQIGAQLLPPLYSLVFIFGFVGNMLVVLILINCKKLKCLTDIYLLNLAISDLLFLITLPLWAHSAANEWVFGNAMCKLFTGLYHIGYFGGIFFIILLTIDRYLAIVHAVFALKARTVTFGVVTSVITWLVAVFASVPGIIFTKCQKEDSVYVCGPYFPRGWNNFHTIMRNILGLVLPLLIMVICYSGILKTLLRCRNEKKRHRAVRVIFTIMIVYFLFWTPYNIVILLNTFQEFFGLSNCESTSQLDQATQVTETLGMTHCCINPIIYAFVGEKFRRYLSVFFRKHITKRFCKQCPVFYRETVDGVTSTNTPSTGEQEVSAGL
- ASSAY_TEXT: Calcium mobilization assay (FLIPR, CHOK1-CCR2B-A5 cells, 20 nM MCP-1)
- ASSAY_CONTEXT: Ca mobilisation assay, CCR2, antagonist activity vs 20 nM MCP-1
Items are presented alongside their recorded log10 IC50.
Short version: log10 scale, IC50, nM.

> print(dat)
                                   molecule                            assayed.target  endpoint.value
1  O=C(/C=C/c1ccc(F)c(F)c1)N1CCC(=O)N(CCCN2CCCCC2)CC1  human chemokine receptor 2 isoform B (Homo sapiens, UniProt P41597)            3.11
2  O=C(/C=C/c1ccc(Cl)c(Cl)c1)N1CCC(=O)N(CCCN2CCOCC2)CC1  human chemokine receptor 2 isoform B (Homo sapiens, UniProt P41597)            3.12
3  O=C(/C=C/c1ccc(F)c(Cl)c1)N1CCC(=O)N(C[C@@H](O)CN2CC[C@@H](CO)[C@H](O)C2)CC1 (mixture of isomers)  human chemokine receptor 2 isoform B (Homo sapiens, UniProt P41597)            3.13

Requested read-out log10 IC50, target or system human chemokine receptor 2 isoform B (Homo sapiens, UniProt P41597), entry O=C(/C=C/c1ccc(Cl)c(Cl)c1)N1CCC(=O)N(CCCN2CCCCC2CO)CC1 (racemic) 2.61

Requested read-out log10 IC50, target or system human chemokine receptor 2 isoform B (Homo sapiens, UniProt P41597), entry O=C(/C=C/c1ccc(F)c(Cl)c1)N1CCC(=O)N(CCCCN2CCC(O)C2)CC1 (racemic) 2.94

Requested read-out log10 IC50, target or system human chemokine receptor 2 isoform B (Homo sapiens, UniProt P41597), entry O=C(/C=C/c1ccc(Cl)c(Cl)c1)N1CCC(=O)N(CCCN2CC(O)CCC2CO)CC1 (racemic) 2.50

Requested read-out log10 IC50, target or system human chemokine receptor 2 isoform B (Homo sapiens, UniProt P41597), entry CC1CCC(O)CN1CCCN1CCN(C(=O)/C=C/c2ccc(Cl)c(Cl)c2)CCC1=O (racemic) 2.28

Requested read-out log10 IC50, target or system human chemokine receptor 2 isoform B (Homo sapiens, UniProt P41597), entry CC1(C)CCN(CCCN2CCN(C(=O)/C=C/c3ccc(Cl)c(Cl)c3)CCC2=O)CC1O (racemic) 0.60

Requested read-out log10 IC50, target or system human chemokine receptor 2 isoform B (Homo sapiens, UniProt P41597), entry COCC1CN(CCCCN2CCN(C(=O)/C=C/c3ccc(Cl)c(Cl)c3)CCC2=O)CCC1O (racemic) 2.83
